FYI, the data here is from patent US9693556B2.

Test system: Setaria faberi (SETFA)
Test: Post-emergence herbicidal glasshouse test on Setaria faberi
Format: in vivo
Details: post-emergence; 1000 g/h; evaluated after 13 days
experimentalEndpoint: POST Application SETFA herbicidal damage (five point scale)

Some solved cases for reference:
CCCn1ncc(-c2c(Cl)ccc(Cl)c2Cl)c(O)c1=O 2 (2=20-39% damage)
CN(Cc1nc(C(F)(F)F)ccc1-c1cnn(C)c(=O)c1O)S(C)(=O)=O 5 (5=80-100% damage)
COc1ccc(Cn2ncc(-c3ccc(S(C)(=O)=O)c(C4=NOCC4)c3C)c(O)c2=O)cc1 1 (1=0-19% damage)
CN(C)c1c(Cl)ccc(-c2cnn(C)c(=O)c2O)c1F 1 (1=0-19% damage)
COc1c(Cl)ccc(-c2cnn(C)c(=O)c2O)c1F 1 (1=0-19% damage)
Cn1ncc(-n2ccc(C(F)(F)F)c(-c3ccc([N+](=O)[O-])cc3)c2=O)c(O)c1=O 5 (5=80-100% damage)
Cn1ncc(-c2ccc(S(C)(=O)=O)c(COCC(F)(F)F)c2Cl)c(O)c1=O 5 (5=80-100% damage)

Next up:
POST Application SETFA herbicidal damage (five point scale) recorded for this compound, COc1nc(C(F)(F)F)ccc1-c1cnn(C)c(=O)c1O , is 1 (1=0-19% damage)

* * *

Test system: Amaranthus retoflexus (AMARE)
Assay: Pre-emergence herbicidal glasshouse test on Amaranthus retoflexus
Format: in vivo
Conditions: pre-emergence; 1000 g/h; evaluated after 13 days
Measured PRE Application AMARE herbicidal damage (five point scale) accompanies every entry in the list below.

Use the examples below as a reference point.
Cn1ncc(-c2ccc(C(F)(F)F)cc2S(C)(=O)=O)c(O)c1=O 5 (5=80-100% damage)
Cn1nc(N)c(-c2ccc(C(F)(F)F)cc2S(C)(=O)=O)c(O)c1=O 5 (5=80-100% damage)
COCCOCc1nc(C(F)(F)F)ccc1-c1cnn(C)c(=O)c1O 5 (5=80-100% damage)

Log: Amaranthus retoflexus (AMARE), molecule CC#Cc1ccc(-c2cnn(C)c(=O)c2O)c(S(C)(=O)=O)c1 , PRE Application AMARE herbicidal damage (five point scale) = 5 (5=80-100% damage)

Reported PRE Application AMARE herbicidal damage (five point scale) (Amaranthus retoflexus (AMARE)) for entry Cc1cc(C)c2cc(-c3cnn(C)c(=O)c3O)c(C(F)(F)F)nc2n1 is 5 (5=80-100% damage)

Amaranthus retoflexus (AMARE) assay, molecule Cn1ncc(-c2cccnc2OCC(F)F)c(O)c1=O , recorded PRE Application AMARE herbicidal damage (five point scale) = 1 (1=0-19% damage)

Let me check: Cn1ncc(-n2ccc(C(F)(F)F)c(-c3ccccc3)c2=O)c(O)c1=O , system Amaranthus retoflexus (AMARE), measured PRE Application AMARE herbicidal damage (five point scale) is 5 (5=80-100% damage)

Observed PRE Application AMARE herbicidal damage (five point scale) on Amaranthus retoflexus (AMARE), entry Cc1c(Cl)cccc1-c1c(C(F)(F)F)ccn(-c2cnn(C)c(=O)c2O)c1=O , equals 5 (5=80-100% damage)

* * *

// reported POST Application SETFA herbicidal damage (five point scale) per item
Test system: Setaria faberi (SETFA)
Experiment: Post-emergence herbicidal glasshouse test on Setaria faberi
Type: in vivo
Conditions: post-emergence; 1000 g/h; evaluated after 13 days

Study these solved cases before continuing.
compound	reading
Cc1c(-c2cnn(C)c(=O)c2O)ccc(S(C)(=O)=O)c1C1=NOCC1 [Compound 1.018]	5 (5=80-100% damage)
Cn1ncc(-c2cc(OC(F)(F)F)ccc2Cl)c(O)c1=O [Compound 1.100]	1 (1=0-19% damage)
COCn1ncc(-c2ccc(Cl)cc2S(C)(=O)=O)c(O)c1=O [Compound 2.005]	5 (5=80-100% damage)
CCn1ncc(-c2ccc(C(F)(F)F)nc2S(C)(=O)=O)c(O)c1=O [Compound 4.001]	5 (5=80-100% damage)
Cc1c(-c2cnn(C(C)(C)C)c(=O)c2O)ccc(S(C)(=O)=O)c1C1=NOCC1 [Compound 1.131]	4 (4=60-79% damage)

Now take the following compound into account.
The compound C=C(C)c1ccc(-c2cnn(C)c(=O)c2O)c(S(C)(=O)=O)c1 [Compound 1.140] showed POST Application SETFA herbicidal damage (five point scale) equal to 3 (3=40-59% damage)

* * *

System: Amaranthus retoflexus (AMARE)
Assay: Pre-emergence herbicidal glasshouse test on Amaranthus retoflexus
Assay type: in vivo
Details: pre-emergence; 1000 g/h; evaluated after 13 days
// PRE Application AMARE herbicidal damage (five point scale) lookup, one value per entry

compound	reading
Cn1ncc(-c2cccn(CC(F)(F)F)c2=O)c(O)c1=O	1 (1=0-19% damage)
COC(=O)Oc1c(-c2ccc(C(F)(F)F)cc2S(C)(=O)=O)cnn(C)c1=O	5 (5=80-100% damage)
Cc1c(-c2cnn(C(C)(C)C)c(=O)c2O)ccc(S(C)(=O)=O)c1C1=NOCC1	3 (3=40-59% damage)
CCS(=O)(=O)c1nc(C(F)(F)F)ccc1-c1cnn(C)c(=O)c1O	5 (5=80-100% damage)

Memo: O=c1c(O)c(-c2ccc(C(F)(F)F)cc2C(F)(F)F)cnn1C(F)F , reported PRE Application AMARE herbicidal damage (five point scale): 5 (5=80-100% damage)

* * *

System: Alopecurus myosuroides (ALOMY)
Assay: Post-emergence herbicidal glasshouse test on Alopecurus myosuroides
Format: in vivo
Details: post-emergence; 1000 g/h; evaluated after 13 days
experimentalEndpoint: POST Application ALOMY herbicidal damage (five point scale)

These solved cases illustrate the format of a correct answer.
Cn1ncc(-c2ccc(Br)cc2S(C)(=O)=O)c(O)c1=O 5 (5=80-100% damage)
Cn1ncc(-c2ccc([N+](=O)[O-])cc2S(C)(=O)=O)c(O)c1=O 3 (3=40-59% damage)
COCn1ncc(-c2ccccc2S(C)(=O)=O)c(O)c1=O 5 (5=80-100% damage)
Cn1ncc(-c2ccc(C(F)(F)F)nc2O)c(O)c1=O 1 (1=0-19% damage)

Consider CC(C)OCc1ccc(-c2cnn(C)c(=O)c2O)c(S(C)(=O)=O)c1 . Its measured POST Application ALOMY herbicidal damage (five point scale) is 3 (3=40-59% damage)

* * *

System: Alopecurus myosuroides (ALOMY)
Experiment: Post-emergence herbicidal glasshouse test on Alopecurus myosuroides
Assay type: in vivo
Conditions: post-emergence; 1000 g/h; evaluated after 13 days
experimentalEndpoint: POST Application ALOMY herbicidal damage (five point scale)

Look over these answered cases.
compound	reading
Cc1ccc(-c2cnn(C)c(=O)c2O)c(S(C)(=O)=O)c1 [Compound 2.031]	4 (4=60-79% damage)
Cn1ncc(-c2ccc(C(F)(F)F)nc2C#N)c(O)c1=O [Compound 4.015]	1 (1=0-19% damage)
Cc1cc(F)ccc1-c1cnn(C)c(=O)c1O [Compound 1.093]	1 (1=0-19% damage)
Cn1ncc(-n2ccc(-c3ccc(C(F)(F)F)cc3)cc2=O)c(O)c1=O [Compound 1.023]	2 (2=20-39% damage)
Cn1ncc(-c2ccc(S(C)(=O)=O)c3c2COC3)c(O)c1=O [Compound 1.030]	1 (1=0-19% damage)
Cn1ncc(-c2cc(Cl)c(Cl)cc2Cl)c(O)c1=O [Compound 1.089]	1 (1=0-19% damage)
Cn1ncc(-c2ccc(-c3ccccc3)cc2S(C)(=O)=O)c(O)c1=O [Compound 2.033]	5 (5=80-100% damage)
Cc1ccn(-c2cnn(C)c(=O)c2O)c(=O)c1 [Compound 1.065]	1 (1=0-19% damage)
COc1ccc(Cn2ncc(-c3ccc(Cl)cc3S(C)(=O)=O)c(O)c2=O)cc1 [Compound 2.008]	3 (3=40-59% damage)
Cn1ncc(-c2ccccc2C(F)(F)F)c(O)c1=O [Compound 1.116]	1 (1=0-19% damage)

POST Application ALOMY herbicidal damage (five point scale) for Cn1ncc(-c2cc(C(F)(F)F)ccc2F)c(O)c1=O [Compound 1.096] is 1 (1=0-19% damage)

The recorded POST Application ALOMY herbicidal damage (five point scale) for entry Cn1ncc(-c2ccc(Cl)cc2S(C)(=O)=O)c(O)c1=O [Compound 1.061] equals 5 (5=80-100% damage)

* * *

Test system: Ipomoea hederacea (IPOHE)
Assay: Pre-emergence herbicidal glasshouse test on Ipomoea hederacea
Format: in vivo
Details: pre-emergence; 1000 g/h; evaluated after 13 days
experimentalEndpoint: PRE Application IPOHE herbicidal damage (five point scale)

In the examples that follow, each entry is paired with its recorded PRE Application IPOHE herbicidal damage (five point scale).
compound	reading
Cn1ncc(-c2cccc3ccccc23)c(O)c1=O	1 (1=0-19% damage)
COCn1ncc(-c2ccc(S(C)(=O)=O)c(C3=NOCC3)c2C)c(O)c1=O	5 (5=80-100% damage)
C=Cc1ccccc1-c1c(C(F)(F)F)ccn(-c2cnn(C)c(=O)c2O)c1=O	1 (1=0-19% damage)
CC[S+]([O-])c1ccccc1-c1cnn(C)c(=O)c1O (stereo not drawn)	1 (1=0-19% damage)
CCn1ncc(-c2ccc(C(F)(F)F)nc2S(C)(=O)=O)c(O)c1=O	5 (5=80-100% damage)

PRE Application IPOHE herbicidal damage (five point scale) measured on CC(C)n1ncc(-c2c(Cl)cccc2Cl)c(O)c1=O = 1 (1=0-19% damage)

The value of PRE Application IPOHE herbicidal damage (five point scale) measured for the compound Cn1ncc(-n2ccc(-c3ccc(C(F)(F)F)cc3)cc2=O)c(O)c1=O turned out to be 1 (1=0-19% damage)

For record Cn1ncc(-c2ccc(OCC(F)(F)F)cc2S(C)(=O)=O)c(O)c1=O the listed PRE Application IPOHE herbicidal damage (five point scale) is 4 (4=60-79% damage)

So, CCSC(=O)Oc1c(-c2ccc(C(F)(F)F)cc2S(C)(=O)=O)cnn(C)c1=O ? Its PRE Application IPOHE herbicidal damage (five point scale) was 5 (5=80-100% damage)

For CSc1ccn(-c2cnn(C)c(=O)c2O)c(=O)c1 the compound record lists PRE Application IPOHE herbicidal damage (five point scale) as 1 (1=0-19% damage)

The compound identified as Cn1ncc(-c2cc(Cl)ccc2Cl)c(O)c1=O registered its PRE Application IPOHE herbicidal damage (five point scale) at 1 (1=0-19% damage)
